- TESTED ON: 5-HT₃ receptor (Rattus norvegicus)
- Construct: from tissue
- ASSAY TEXT: Inhibition of serotonin-induced Von Bezold-Jarisch reflex in rats
- Assay type: in vivo
- PARTICULARS: rat, iv; 0.01 mg/kg I.V., 15 minutes prior to 5-HT; read-out: Percent Inhibition of Reflex in Rats
Answer each item with its documented inhibition at 0.01 mg/kg.
Give the quantity in %, number only.

## Input Respond only with inhibition at 0.01 mg/kg recorded for Cc1cc2c(c(C(=O)O[C@H]3C[C@H]4CC[C@@H](C3)N4C)c1)OC(C)(C)C2
## Output 4

## Input Answer with reported inhibition at 0.01 mg/kg of COc1cc2c(c(C(=O)N[C@H]3C[C@H]4CC[C@@H](C3)N4C)c1)OC(C)(C)C2
## Output -1

## Input Please supply the value of reported inhibition at 0.01 mg/kg for the item CN1[C@@H]2CC[C@H]1C[C@@H](NC(=O)c1cc(O)cc3c1OC(C)(C)C3)C2
## Output 54

## Input Fill in reported inhibition at 0.01 mg/kg for this entry: CN1[C@@H]2CC[C@H]1C[C@H](OC(=O)c1cc(Cl)cc3c1OC(C)(C)C3)C2
## Output 2

## Input Quick one: give measured inhibition at 0.01 mg/kg for CC1Cc2cc(Cl)cc(C(=O)O[C@H]3C[C@H]4CC[C@@H](C3)N4C)c2O1 (mixture of isomers)
## Output 69

## Input Recall and state the measured inhibition at 0.01 mg/kg for CN1[C@@H]2CC[C@H]1C[C@@H](NC(=O)c1ccc3c(c1)OC(C)(C)C3)C2 .
## Output -8

## Input Return the recorded inhibition at 0.01 mg/kg value; entry: CC1(C)Cc2cc(Cl)cc(C(=O)NC3CN4CCC3CC4)c2O1 (stereo not shown)
## Output 89

## Input Look up inhibition at 0.01 mg/kg of CC1Cc2cccc(C(=O)N[C@@H]3C[C@H]4CC[C@@H](C3)N4C)c2O1 (mixture of isomers) and report it.
## Output 26

## Input Write down inhibition at 0.01 mg/kg measured for item CN1[C@@H]2CC[C@H]1C[C@@H](NC(=O)c1cccc3c1SC(C)(C)C3)C2
## Output 0.1

## Input Tell me inhibition at 0.01 mg/kg reported for COc1cc2c(c(C(=O)N[C@H]3C[C@H]4CC[C@@H](C3)N4C)c1)OC(C)C2 (mixture of isomers)
## Output 20

## Input Tell us which inhibition at 0.01 mg/kg value is on record for CN1[C@@H]2CC[C@H]1C[C@@H](NC(=O)c1cc(Cl)cc3c1OC(C)(C)CC3)C2
## Output 91

## Input Find the measured inhibition at 0.01 mg/kg of CN1[C@@H]2CC[C@H]1C[C@@H](NC(=O)c1c(Cl)ccc3c1OC(C)(C)C3)C2 and report it.
## Output -3

## Input Supply reported inhibition at 0.01 mg/kg belonging to this compound: CN1C2CCC1CC(NC(=O)c1cc(F)cc3c1OC(C)(C)C3)C2 (stereo not shown)
## Output 71

## Input For the compound CC1Cc2cccc(C(=O)N[C@H]3C[C@H]4CC[C@@H](C3)N4C)c2O1 (mixture of isomers) , give its measured inhibition at 0.01 mg/kg value.
## Output 22

## Input Give reported inhibition at 0.01 mg/kg value for Cc1cc2c(c(C(=O)O[C@H]3C[C@H]4CC[C@@H](C3)N4C)c1)OC(C)C2 (mixture of isomers)
## Output 67

## Input Quickly give me recorded inhibition at 0.01 mg/kg for CN1[C@@H]2CC[C@H]1C[C@@H](OC(=O)c1cc(Cl)cc3c1OC(C)(C)C3)C2
## Output 83

* * *

- TESTED ON: 5-HT₃ receptor (Rattus norvegicus, UniProt P35563)
- Construct: from tissue
- Sequence (P35563 24-483): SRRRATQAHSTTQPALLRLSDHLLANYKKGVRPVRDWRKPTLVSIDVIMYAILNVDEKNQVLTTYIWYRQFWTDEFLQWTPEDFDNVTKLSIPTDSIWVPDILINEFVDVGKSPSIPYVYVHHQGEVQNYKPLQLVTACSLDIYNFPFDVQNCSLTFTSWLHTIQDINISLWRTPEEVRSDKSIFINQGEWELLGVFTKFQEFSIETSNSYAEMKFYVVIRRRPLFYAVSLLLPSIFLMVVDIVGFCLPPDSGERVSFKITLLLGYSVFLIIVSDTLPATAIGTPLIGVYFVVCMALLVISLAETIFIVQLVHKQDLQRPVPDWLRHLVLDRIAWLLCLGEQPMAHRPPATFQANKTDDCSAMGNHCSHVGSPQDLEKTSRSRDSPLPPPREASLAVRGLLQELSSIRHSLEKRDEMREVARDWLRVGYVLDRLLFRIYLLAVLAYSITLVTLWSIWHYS
- ASSAY TEXT: Inhibition of serotonin-induced Von Bezold-Jarisch reflex in rats
- Assay type: in vivo
- PARTICULARS: rat, iv; 0.03 mg/kg I.V., 15 minutes prior to 5-HT; read-out: Percent Inhibition of Reflex in Rats
Field: inhibition at 0.03 mg/kg. Provide a value for each of the molecules that follow.
Form entry: value (%) — number only.

## Input Specify reported inhibition at 0.03 mg/kg for the molecule shown: CC1Cc2cccc(C(=O)N[C@@H]3C[C@H]4CC[C@@H](C3)N4C)c2O1 (mixture of isomers)
## Output 51

## Input Look up and state reported inhibition at 0.03 mg/kg for CC1Cc2cccc(C(=O)N[C@H]3C[C@H]4CC[C@@H](C3)N4C)c2O1 (mixture of isomers)
## Output 57

## Input // fetch inhibition at 0.03 mg/kg given entry CN1[C@@H]2CC[C@H]1C[C@H](NC(=O)c1cccc3c1OC(C)(C)C3)C2
## Output 82

## Input Find the measured inhibition at 0.03 mg/kg of CN1[C@@H]2CC[C@H]1C[C@@H](NC(=O)c1cccc3c1OC(C)(C)C3)C2 and report it.
## Output 82

* * *

- TESTED ON: 5-HT₃ receptor (Rattus norvegicus)
- Construct: from tissue
- ASSAY TEXT: Inhibition of serotonin-induced Von Bezold-Jarisch reflex in rats
- Assay type: in vivo
- PARTICULARS: rat, iv; 0.001 mg/kg I.V., 15 minutes prior to 5-HT; read-out: Percent Inhibition of Reflex in Rats
Kindly state inhibition at 0.001 mg/kg for each of the entries shown.

## Input Return inhibition at 0.001 mg/kg (reported value) for this compound: CN1[C@@H]2CC[C@H]1C[C@@H](NC(=O)c1cc(Cl)cc3c1OC(C)(C)C3)C2 [Example 19]
## Output 66%

## Input Specify inhibition at 0.001 mg/kg for CC1Cc2cc(Cl)cc(C(=O)N[C@H]3C[C@H]4CC[C@@H](C3)N4C)c2O1 (mixture of isomers) [Example 32] and stop.
## Output 58%

## Input For CC1(C)Cc2cccc(C(=O)NC3CN4CCC3CC4)c2O1 (stereo not drawn) [Example 60] , write its inhibition at 0.001 mg/kg.
## Output 25%

## Input Give the reported value of inhibition at 0.001 mg/kg for this record: CN1[C@@H]2CC[C@H]1C[C@@H](NC(=O)c1cccc3c1OC(C)(C)CC3)C2 [Example 36]
## Output 4%

## Input Tell me inhibition at 0.001 mg/kg reported for CC1(C)CCc2cccc(C(=O)NC3CN4CCC3CC4)c2O1 (stereo not drawn) [Example 53]
## Output 50%

## Input Let me know recorded inhibition at 0.001 mg/kg for Cc1cc2c(c(C(=O)N[C@H]3C[C@H]4CC[C@@H](C3)N4C)c1)OC(C)(C)C2 [Example 21] , thanks.
## Output 0.3%

## Input Query inhibition at 0.001 mg/kg for Cc1cc2c(c(C(=O)O[C@H]3C[C@H]4CC[C@@H](C3)N4C)c1)OC(C)C2 (mixture of isomers) [Example 40]
## Output 3%

## Input Consider the compound CC1Cc2cc(Cl)cc(C(=O)O[C@H]3C[C@H]4CC[C@@H](C3)N4C)c2O1 (mixture of isomers) [Example 34] . State its measured inhibition at 0.001 mg/kg.
## Output 6%

## Input Identify the reported inhibition at 0.001 mg/kg for the following entry. CN1[C@@H]2CC[C@H]1C[C@@H](OC(=O)c1cc(Cl)cc3c1OC(C)(C)C3)C2 [Example 25]
## Output 10%

* * *

- TESTED ON: 5-HT₃ receptor (Rattus norvegicus)
- Construct: from tissue
- ASSAY TEXT: Inhibition of serotonin-induced Von Bezold-Jarisch reflex in rats
- Format: in vivo
- PARTICULARS: rat, iv; 0.003 mg/kg I.V., 15 minutes prior to 5-HT; read-out: Percent Inhibition of Reflex in Rats
Provide the reported inhibition at 0.003 mg/kg of each item.
Field format: number, assumed %, no unit text.

## Input Answer with reported inhibition at 0.003 mg/kg of CN1[C@@H]2CC[C@H]1C[C@@H](OC(=O)c1cc(Cl)cc3c1OC(C)(C)C3)C2 [Example 25]
## Output 19

## Input Determine its reported inhibition at 0.003 mg/kg: CC1Cc2cc(Cl)cc(C(=O)O[C@H]3C[C@H]4CC[C@@H](C3)N4C)c2O1 (mixture of isomers) [Example 34]
## Output 51

## Input Specify measured inhibition at 0.003 mg/kg for CN1[C@@H]2CC[C@H]1C[C@@H](NC(=O)c1cc(Cl)cc3c1OC(C)(C)CC3)C2 [Example 61] .
## Output 30

## Input State, in one line, measured inhibition at 0.003 mg/kg of CN1[C@@H]2CC[C@H]1C[C@@H](NC(=O)c1cccc3c1OC(C)(C)C3)C2 [Example 17]
## Output -2

## Input Consider the compound CC1(C)Cc2cccc(C(=O)NC3CN4CCC3CC4)c2O1 (centres unmarked) [Example 60] . State its measured inhibition at 0.003 mg/kg.
## Output 87

## Input Supply measured inhibition at 0.003 mg/kg of CN1[C@@H]2CC[C@H]1C[C@@H](NC(=O)c1cc(Cl)c(N)c3c1OC(C)(C)C3)C2 [Example 56] in your reply.
## Output 25

## Input Item CN1[C@@H]2CCC[C@H]1C[C@@H](NC(=O)c1cc(Cl)cc3c1OC(C)(C)C3)C2 [Example 54] : provide inhibition at 0.003 mg/kg
## Output 84

## Input Consider the compound CN1[C@@H]2CC[C@H]1C[C@@H](NC(=O)c1cc(Cl)cc3c1OC(C)(C)C3)C2 [Example 19] . State its measured inhibition at 0.003 mg/kg.
## Output 90

## Input Tell me its inhibition at 0.003 mg/kg given CN1[C@@H]2CC[C@H]1C[C@@H](OC(=O)c1cccc3c1OC(C)(C)C3)C2 [Example 24] as the entry.
## Output 21

## Input For the compound CC1(C)CCc2cccc(C(=O)NC3CN4CCC3CC4)c2O1 (centres unmarked) [Example 53] , give its measured inhibition at 0.003 mg/kg value.
## Output 93

## Input Tell me measured inhibition at 0.003 mg/kg for Cc1cc2c(c(C(=O)O[C@H]3C[C@H]4CC[C@@H](C3)N4C)c1)OC(C)C2 (mixture of isomers) [Example 40] please.
## Output 14

## Input Answer with reported inhibition at 0.003 mg/kg of CC1Cc2cc(Cl)cc(C(=O)N[C@H]3C[C@H]4CC[C@@H](C3)N4C)c2O1 (mixture of isomers) [Example 32]
## Output 80

## Input Quickly give me recorded inhibition at 0.003 mg/kg for CC1(C)Cc2cc(Cl)cc(C(=O)NC3CN4CCC3CC4)c2O1 (centres unmarked) [Example 49]
## Output 40

## Input Recall and state the measured inhibition at 0.003 mg/kg for CN1[C@@H]2CCC[C@H]1C[C@@H](NC(=O)c1cccc3c1OC(C)(C)C3)C2 [Example 55] .
## Output 88

## Input Answer with reported inhibition at 0.003 mg/kg of Cc1cc2c(c(C(=O)N[C@H]3C[C@H]4CC[C@@H](C3)N4C)c1)OC(C)(C)C2 [Example 21]
## Output 11

## Input // Input: COc1ccc(C(=O)N[C@H]2C[C@H]3CC[C@@H](C2)N3C)c2c1CC(C)(C)O2 [Example 52] . Output its inhibition at 0.003 mg/kg only.
## Output -7

## Input Please indicate inhibition at 0.003 mg/kg recorded for CN1[C@@H]2CC[C@H]1C[C@H](NC(=O)c1cccc3c1OC(C)(C)C3)C2 [Example 39]
## Output -2
